- target entity: T1, peanut allergen Ara h 3 (peanut (Arachis hypogaea))
- T1 construct: also called F424
- test protocol: ImmunoCAP, hybridoma supernatant
ImmunoCAP kUA/L for assorted binders

- binder: "human IgE mAb 3C3 (antibody, V domains shown, human IgE from hybridoma) VH: QLQLQESGPGLVKPSETLSLTCSISGASINSDDYYWGWIRQAPGEALEWIASIDASGTTFYNPSLRSRVTISVDTSTNQISLRLNSVTAADTAIYYCARRKTYYDFLTDYYNWYFDVWGRGTLVTVSS VL: QSALTQPRSVSGSPGQSVTFSCTGINSDIRDYDYVSWYQQHPGEAPKLIIYDVTKRASGVPSRFSGSKSGNTASLTISGLQAEDEADYYCCSYSVTYSFEVFGTGTQVSVL"
  ImmunoCAP kUA/L: "3460 kUA/L"
- binder: "human IgE mAb 21C10 (antibody, V domains shown, human IgE from hybridoma) VH: EVQLVESGGGLVKPGGSLRLSCAASGFILSRSSMSWVRQAPGKGLEWVSYISSTSSHIYYADSLKGRFTISRDNTENSVYLQMSSLRAEDTGVYYCARKTNGAWFLDLWGRGTLVTVSS VL: QSVLTQPPSVSGAPGQRVTISCTGSSSNIGAGSDVHWYQQFPGSAPHVLIYGNNQRPSGVPDRFSASKSGTSASLAITGLQADDEADYYCQSYDYDLSGSWVFGGGTKLTVL"
  ImmunoCAP kUA/L: "0.83 kUA/L"
